Hello, the source for this data is paper doi:10.1101/852095, in case you need it.

- STUDY TARGET: recombinant NPM1 (Nucleophosmin), probe of the protein array (human, UniProt P06748 1-294)
- Sequence (P06748 whole entry): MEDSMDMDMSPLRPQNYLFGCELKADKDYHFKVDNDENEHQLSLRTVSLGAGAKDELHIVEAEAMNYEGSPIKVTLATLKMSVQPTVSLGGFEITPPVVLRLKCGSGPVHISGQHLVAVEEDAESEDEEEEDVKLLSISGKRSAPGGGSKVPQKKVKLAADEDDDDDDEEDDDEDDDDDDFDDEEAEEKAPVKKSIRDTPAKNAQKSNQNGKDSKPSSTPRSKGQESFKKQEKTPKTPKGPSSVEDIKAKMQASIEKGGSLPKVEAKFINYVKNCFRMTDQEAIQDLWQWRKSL
- EXPERIMENT: peptide or protein array
MEASURE NAME: binding result

BINDER | TEST RESULT
GTF2E2 (natural protein, human, UniProt P29084 1-291, looked up) MDPSLLRERELFKKRALSTPVVEKRSASSESSSSSSKKKKTKVEHGGSSGSKQNSDHSNGSFNLKALSGSSGYKFGVLAKIVNYMKTRHQRGDTHPLTLDEILDETQHLDIGLKQKQWLMTEALVNNPKIEVIDGKYAFKPKYNVRDKKALLRLLDQHDQRGLGGILLEDIEEALPNSQKAVKALGDQILFVNRPDKKKILFFNDKSCQFSVDEEFQKLWRSVTVDSMDEEKIEEYLKRQGISSMQESGPKKVAPIQRRKKPASQKKRRFKTHNEHLAGVLKDYSDITSSK | binds
TAF9 (natural protein, human, UniProt Q16594 1-264, looked up) MESGKTASPKSMPKDAQMMAQILKDMGITEYEPRVINQMLEFAFRYVTTILDDAKIYSSHAKKATVDADDVRLAIQCRADQSFTSPPPRDFLLDIARQRNQTPLPLIKPYSGPRLPPDRYCLTAPNYRLKSLQKKASTSAGRITVPRLSVGSVTSRPSTPTLGTPTPQTMSVSTKVGTPMSLTGQRFTVQMPTSQSPAVKASIPATSAVQNVLINPSLIGSKNILITTNMMSSQNTANESSNALKRKREDDDDDDDDDDDYDNL | binds
MED31 (natural protein, human, UniProt Q9Y3C7 1-131, looked up) MAAAVAMETDDAGNRLRFQLELEFVQCLANPNYLNFLAQRGYFKDKAFVNYLKYLLYWKDPEYAKYLKYPQCLHMLELLQYEHFRKELVNAQCAKFIDEQQILHWQHYSRKRMRLQQALAEQQQQNNTSGK | binds
GTF2A2 (natural protein, human, UniProt P52657 1-109, looked up) MAYQLYRNTTLGNSLQESLDELIQSQQITPQLALQVLLQFDKAINAALAQRVRNRVNFRGSLNTYRFCDNVWTFVLNDVEFREVTELIKVDKVKIVACDGKNTGSNTTE | binds
